- test.system: Nucleoprotein (Influenza A virus (strain A/Wilson-Smith/1933 H1N1), UniProt P15682)
- Sequence (P15682 whole entry): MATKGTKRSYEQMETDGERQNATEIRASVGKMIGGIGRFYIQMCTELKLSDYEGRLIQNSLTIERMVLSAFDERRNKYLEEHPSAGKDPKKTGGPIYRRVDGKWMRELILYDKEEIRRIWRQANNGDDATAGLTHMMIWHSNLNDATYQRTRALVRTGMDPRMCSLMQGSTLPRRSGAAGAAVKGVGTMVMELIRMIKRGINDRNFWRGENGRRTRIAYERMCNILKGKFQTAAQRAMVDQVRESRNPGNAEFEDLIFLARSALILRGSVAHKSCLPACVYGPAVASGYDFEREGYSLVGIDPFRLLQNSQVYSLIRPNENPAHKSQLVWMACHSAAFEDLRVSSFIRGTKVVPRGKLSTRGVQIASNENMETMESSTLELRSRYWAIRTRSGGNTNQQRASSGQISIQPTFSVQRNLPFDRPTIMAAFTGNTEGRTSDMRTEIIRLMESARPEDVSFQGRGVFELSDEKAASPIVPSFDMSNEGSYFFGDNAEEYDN
- method.summary: Binding affinity to influenza A virus Nucleoprotein assessed as dissociation constant by SPR analysis
Known Kd of a selection of compounds
Just the number in nM, nothing appended.

Solved cases (2 shown):
CCOc1ccc(/C=C/C(=O)/C=C/c2c(OC)cccc2OC)cc1: 239
Cc1onc(-c2ccccc2)c1C(=O)N1CCN(c2ccc([N+](=O)[O-])cc2Cl)CC1: 14

Measured Kd for this entry "COc1cccc(OC)c1/C=C/C(=O)/C=C/c1ccc(N2CCOCC2)cc1" on Nucleoprotein (Influenza A virus (strain A/Wilson-Smith/1933 H1N1), UniProt P15682): 239
